The reader will find reported melting point values listed item by item below.

Example molecules with recorded melting point:
STRUCTURE SMILES STRING: Cc1ccc(N2CCN(C(=O)c3cc4c5ccccc5n(C)c4c(-c4ccccc4)n3)CC2)cc1
melting point: 188 to 190 °C
--
STRUCTURE SMILES STRING: Cn1c2ccccc2c2cc(C(=O)N3CCN(c4cccc(Cl)c4Cl)CC3)nc(-c3ccccc3)c21
melting point: 166 to 168 °C
--
STRUCTURE SMILES STRING: COc1ccc(N2CCN(C(=O)c3cc4c5ccccc5n(C)c4c(-c4ccccc4)n3)CC2)cc1
melting point: 170 to 172 °C
--
STRUCTURE SMILES STRING: Cc1ccccc1N1CCN(C(=O)c2cc3c4ccccc4n(C)c3c(-c3ccccc3)n2)CC1
melting point: 148 to 150 °C
--
STRUCTURE SMILES STRING: Cn1c2ccccc2c2cc(C(=O)N3CCN(c4ccccc4F)CC3)nc(-c3ccccc3)c21
melting point: 168 to 170 °C
--
STRUCTURE SMILES STRING: Cn1c2ccccc2c2cc(C(=O)N3CCN(c4ccccn4)CC3)nc(-c3ccccc3)c21
melting point: 174 to 176 °C
--
STRUCTURE SMILES STRING: COc1ccccc1N1CCN(C(=O)c2cc3c4ccccc4n(C)c3c(-c3ccccc3)n2)CC1
melting point: 168 to 170 °C

In the following, a different molecule is considered.
q: Consider the molecule shown here: `Cn1c2ccccc2c2cc(C(=O)N3CCN(c4ccc(Cl)cc4)CC3)nc(-c3ccccc3)c21` What is its recorded melting point?
a: 160 to 162 °C
